B1: SPDEF (parent)
chain: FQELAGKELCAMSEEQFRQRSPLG

Variants of: B1
test details: protein stability index of a GFP-peptide fusion (GPS, HEK-293T) (PSI 1-6); higher = more stable;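 further: lentivirally expressed fusions sorted by FACS into six bins by GFP to DsRed ratio, PSI derived from sequencing read proportions per bin multiplied by bin number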
assay context: c terminus: a fixed tail appended
Label Condition not met if protein stability index falls below 3; label Condition met in every other case.

Recorded results for 3 variants are shown here.
[
  {
    "sequence": "FQELAGKECCAMSEEQFRQRSPLG",
    "category": "Condition not met"
  },
  {
    "sequence": "FQVLAGKELCAMSEEQFRQRSPLG",
    "category": "Condition not met"
  },
  {
    "sequence": "FQELAGKELCAMSEEQFRQDSPLG",
    "category": "Condition met"
  }
]

Data request: Does protein stability index meet or surpass 3 for `FQELAGKELCAMSEEQFRQRSPMG` ?
Data returned: Condition not met

Data request: Does protein stability index meet or surpass 3 for `FQELAGKELCADSEEQFRQRSPLG` ?
Data returned: Condition met

Data request: Does protein stability index meet or surpass 3 for `FPELAGKELCAMSEEQFRQRSPLG` ?
Data returned: Condition not met

Source: the supplement of paper PMC10567573
